Hello, the source for this data is paper PMC9482650, in case you need it.

- target: T1, RHPN1, Q8TCX5
- T1 sequence (Q8TCX5 508-602, limits assumed, looked up): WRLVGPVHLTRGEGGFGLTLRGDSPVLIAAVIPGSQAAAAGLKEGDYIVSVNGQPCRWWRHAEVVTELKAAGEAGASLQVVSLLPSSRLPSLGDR
- assay procedure: holdup assay
- Parameters: key: below the threshold = too weak to quantify, mostly under pKd 3.1 to 4
- condition parameters: plain residues with an end cap or a label only (N-terminal biotin on a linker: ahx)
Returns one of yes (1) or no (0); yes (1) when pKd is >= 4.

- SKKNELFSNL [NHERF1, O14745]: no (0)
- PKMKLNETSF [SHKBP1, Q8TBC3]: no (0)
- ADENEQVSAV [RAPGEF6, Q8TEU7]: yes (1)
- AKPQPVDSWV [ARVCF, O00192]: no (0)
- YNSFLSVTTV [PDZRN3, Q9UPQ7]: yes (1)
